Data origin, for the record: PubChem BioAssay

Would you mind telling me the reported composite z-score of each entry?
experiment: small-molecule binders of probe aNOTCH2, primary screen, biochemical, small-molecule microarray, 635/667 nm fluorescence (AID 1121);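 note: score merges feature fluorescence read at 667 nm with its signal to noise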
studyConditions: higher = more signal

Record summary for CC(=O)NCCCC[C@@H]1NC(=O)[C@@H]2C[C@H](C(=O)O)[C@H](c3cccc(OCCO)c3)N2C1=O : reported composite z-score = -0.146

Record summary for COc1c(C)cc(-c2cc3c(c(CCc4ccccc4)n2)[Si](C(C)C)(C(C)C)OC3)cc1C : reported composite z-score = 0.0049

Record summary for CC(C)CNC(=O)[C@@H]1c2ccccc2C(=O)N(Cc2ccc(OC(F)(F)F)cc2)[C@H]1c1ccc(CO)cc1 : reported composite z-score = 0.0081

Record summary for O=c1n(-c2ccccc2)c(=O)n2n1CC(COc1ccccc1)=C1[C@@H](CCc3ccccc3)OB(O)C[C@@H]12 : reported composite z-score = -0.063

Record summary for CO[C@H]1O[C@H](CO)[C@@H](OC(=O)Nc2ccccc2)[C@H](OC(=O)Nc2ccccc2-c2ccccc2)[C@@H]1OC(=O)Nc1ccccc1-c1ccccc1 : reported composite z-score = -0.094

Record summary for C=CCC1(CC=C)C[C@H]2CO[C@H](c3ccc(OC)cc3)N2C1=O : reported composite z-score = -0.155

Next:
Record summary for CCOC(=O)C[C@H]1[C@H](OC(=O)c2cc3ccccc3oc2=O)[C@@H](NC(=O)c2ccccc2)c2cc(OCCCO)ccc2N1C(=O)Cc1ccc(OC)cc1 : reported composite z-score = -0.0578

###

measuredTarget: Torsin-1A (Homo sapiens) (UniProt O14656)
Sequence (O14656 whole entry, looked up): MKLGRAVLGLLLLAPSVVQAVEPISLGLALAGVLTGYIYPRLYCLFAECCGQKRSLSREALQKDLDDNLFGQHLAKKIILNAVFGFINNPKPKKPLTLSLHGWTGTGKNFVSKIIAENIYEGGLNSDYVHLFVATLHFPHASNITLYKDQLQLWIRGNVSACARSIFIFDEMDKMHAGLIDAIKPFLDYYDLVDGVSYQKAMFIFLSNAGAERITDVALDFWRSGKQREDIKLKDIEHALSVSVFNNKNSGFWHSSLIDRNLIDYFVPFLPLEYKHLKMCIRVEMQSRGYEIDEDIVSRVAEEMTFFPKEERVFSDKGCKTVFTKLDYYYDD
experiment: torsin A binders from cell lysate, primary screen, small-molecule microarray, wild-type, 635/667 nm (AID 1149)
studyConditions: COS7 hTOR1A-WT lysate, 635 nm fluorescence, higher = more signal
measuredMetric: composite z-score
One number for each entry.

Record summary for CN1C=C(C(=O)OCCS(C)(=O)=O)C(C(=O)OCCS(C)(=O)=O)=CC(CCCO)=CC1c1cccs1 (centres undefined) : reported composite z-score = 0.408

Record summary for C/C=C/[C@@H](CCn1cc(CCO[Si](C(C)C)(C(C)C)C(C)C)nn1)[Si](C)(C)c1ccc(OC)cc1 : reported composite z-score = -0.72

Record summary for C=C(COC)/C(=C/C[C@H](OC(C)=O)c1ccc(CO)o1)c1cnc2ccccc2c1 : reported composite z-score = 1.21

Next:
Record summary for COC(=O)C(CC#Cc1ccc2c(c1)[C@]1(C(=O)N2)[C@H](C(=O)O)[C@H]2C(=O)O[C@H](c3ccccc3)[C@H](c3ccccc3)N2[C@@H]1c1ccc(OCCO)cc1)C(=O)OC : reported composite z-score = 0.734

###

experiment: A549 cell viability effects, profiling panel, calcein-AM fluorescence, 48 h, basal (AID 1162); note: test concentration not given here
studyConditions: higher = more signal
Each entry gets not fulfilled if its z-score stays under 0.07, and fulfilled if its z-score is 0.07 or above.

Example entries begin here.
Confirm if z-score reported for the compound C=C(CCCC)/C(=C/C[C@@H](OC(=O)c1ccncc1)c1ccc(OCCO)cc1)c1cnc2ccccc2c1 is 0.07 or above.
fulfilled

Confirm if z-score reported for the compound CC(C)C(=C=CC[C@@H](O)c1ccc(CO)o1)CCO is 0.07 or above.
fulfilled

Confirm if z-score reported for the compound Cc1ccc(S[C@]2(C(=O)NCC(C)C)CC(=O)N(C(C)C)[C@@H]2c2ccc(CO)cc2)cc1 is 0.07 or above.
not fulfilled

Confirm if z-score reported for the compound COc1ccc(C(=O)Nc2cccc(CN3C(=O)[C@@]4(O[C@@H](CCO)[C@H]([Si](C)(C)c5ccc(OC)cc5)[C@H]4C)c4ccccc43)c2)cc1 is 0.07 or above.
not fulfilled

Confirm if z-score reported for the compound C=CCC(OC(C)=O)[C@@H]1[C@@H](N(Cc2ccc(-c3cccc(C(F)(F)F)c3)o2)C(=O)c2ccc(-c3ccccc3)cc2)c2cc(OCCCO)ccc2N1C(=O)Cc1ccc(OC)cc1 (some centres not stated) is 0.07 or above.
fulfilled

Query compound follows.
Confirm if z-score reported for the compound CN1C=C(C(=O)OCCS(C)(=O)=O)C(C(=O)OCCS(C)(=O)=O)=CC(CCCO)=CC1c1cccs1 (configuration not stated) is 0.07 or above.
fulfilled

###

measuredTarget: Concanavalin-A (Canavalia ensiformis) (UniProt P02866)
Sequence (P02866 whole entry, looked up): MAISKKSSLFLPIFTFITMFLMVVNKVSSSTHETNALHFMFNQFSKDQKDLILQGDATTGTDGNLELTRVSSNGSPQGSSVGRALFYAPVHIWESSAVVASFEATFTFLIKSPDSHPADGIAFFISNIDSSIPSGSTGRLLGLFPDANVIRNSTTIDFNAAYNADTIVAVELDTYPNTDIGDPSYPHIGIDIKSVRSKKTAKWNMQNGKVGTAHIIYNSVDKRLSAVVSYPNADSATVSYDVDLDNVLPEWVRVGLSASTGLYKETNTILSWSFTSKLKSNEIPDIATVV
experiment: ConA small-molecule binders, primary screen, artefact control for SMM control protein annotation, biochemical, small-molecule microarray, Alexa647 label, 635 nm (AID 1127);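 note: z combines 667 nm emission intensity with signal-to-noise across three replicate slides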
studyConditions: ConA-A647 binding fluorescence, higher = more signal
Each entry gets not met if its composite z-score stays under 1, and met if its composite z-score is 1 or above.

Example entries begin here.
Confirm if composite z-score reported for the molecule C=CCC(OC(C)=O)[C@@H]1[C@@H](N(Cc2cccc3ccccc23)C(=O)Cc2ccc(OC)cc2)c2cc(OCCCO)ccc2N1C(=O)Cc1ccc(OC)cc1 (some centres not stated) is 1 or above.
not met

Confirm if composite z-score reported for the molecule CC(C)(C)OC(=O)CC[C@@]1(C(=O)N2CCOCC2)N=C(c2ccc(OCCCO)cc2)O[C@@H]1c1ccccc1 is 1 or above.
not met

Confirm if composite z-score reported for the molecule C=CCN1C(=O)[C@@]2(O[C@@H](CCn3cc(CCO)nn3)[C@H]([Si](C)(C)c3ccc(OC)cc3)[C@H]2C)c2cc(N3C(=O)c4cccc5cccc3c45)ccc21 is 1 or above.
met

Query molecule follows.
Confirm if composite z-score reported for the molecule COc1ccc([Si](C)(C)[C@@H]2[C@@H](CC(=O)N3CCC[C@H]3CO)O[C@]3(C(=O)N(Cc4ccc(N5CCC5=O)cc4)c4ccccc43)[C@H]2C)cc1 is 1 or above.
met

###

experiment: RPMI8226 myeloma cell viability, profiling panel, resazurin fluorescence, basal, 24 h, PK04 Diversity Set (AID 1180);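 note: RPMI8826 multiple myeloma cell line at 5000 cells per well; test concentration not given here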
studyConditions: higher = more signal
measuredMetric: z-score
Give bare numbers.

Guide cases for z-score, answers given:
Record summary for C=CCC(OC(C)=O)[C@@H]1[C@@H](N(Cc2ccc(-c3cccc(C(F)(F)F)c3)o2)C(=O)c2ccc(-c3ccccc3)cc2)c2cc(OCCCO)ccc2N1C(=O)Cc1ccc(OC)cc1 (stereo partly specified) : reported z-score = 1.32

Record summary for CO[C@H]1O[C@H](CO)[C@@H](OC(=O)Nc2ccccc2)[C@H](OC(=O)Nc2ccccc2-c2ccccc2)[C@H]1OC(=O)Nc1ccccc1-c1ccccc1 : reported z-score = -5.34

Record summary for CC(C)CCC[C@@H](C)[C@H]1CC[C@@]2(C)C3=C(CC[C@]12C)[C@@]1(C)CC[C@H](OC(=O)CCl)C(C)(C)C1CC3 (stereo partly specified) : reported z-score = 0.444

Record summary for COC(=O)C1=CC(c2ccc(CO)cc2)=CC(C2CC2)N(C)C=C1C(=O)OC (stereo unspecified) : reported z-score = 0.842

Record summary for COCCOC(=O)N1C(=O)[C@@]2(c3cc(C#CC4(O)CCCCCC4)ccc31)[C@H](c1ccccc1OCCO)N1[C@H](c3ccccc3)[C@H](c3ccccc3)OC(=O)[C@H]1[C@@H]2C(=O)Nc1nc2ccccc2s1 : reported z-score = -0.346

Next:
Record summary for C=CCC(OC(C)=O)[C@@H]1[C@@H](N(Cc2cccc3ccccc23)C(=O)Cc2ccc(OC)cc2)c2cc(OCCCO)ccc2N1C(=O)Cc1ccc(OC)cc1 (stereo partly specified) : reported z-score = 0.666

###

Tested on: Inhibin beta A chain (activin A)
experiment: INHBA (activin A) binders on microarrays, primary screen, biochemical, small-molecule microarray, 635 nm fluorescence scan (AID 1107);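 note: mouse activin A protein probed at 4.33 µg/mL on printed slides; score merges bound-protein fluorescence near 667 nm with spot signal-to-noise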
studyConditions: small-molecule microarray binding, higher = more signal
Consider the following partition of reported composite z-score into named classes: bin 0 = under 0.4, bin 1 = from 0.4 up to 0.9, bin 2 = 0.9 and over

Using the reported composite z-score, which band applies to COC(=O)C(CC#Cc1ccc2c(c1)[C@]1(C(=O)N2)[C@H](C(=O)O)[C@H]2C(=O)O[C@H](c3ccccc3)[C@H](c3ccccc3)N2[C@@H]1c1ccc(OCCO)cc1)C(=O)OC ?
bin 0

Using the reported composite z-score, which band applies to COc1ccc(/C=C/C(=O)c2cccc(OCC(=O)OC(C)(C)C)c2)cc1 ?
bin 0

Using the reported composite z-score, which band applies to CC(C)C[C@@H]1NC(=O)[C@H]2C[C@@H](C(=O)NCCCC[N+](C)(C)C)[C@@H](c3cccc(OCCO)c3)N2C1=O ?
bin 0

Using the reported composite z-score, which band applies to CC(C)(C)OC(=O)CC[C@@]1(C(=O)NCc2ccccc2)N=C(c2ccc(OCCCO)cc2)O[C@@H]1c1ccccc1CN=[N+]=[N-] ?
bin 1

Using the reported composite z-score, which band applies to C=C(CCCC)/C(=C/C[C@H](OC(=O)c1ccncc1)c1ccc(CO)o1)c1cnc2ccccc2c1 ?
bin 2

Next:
Using the reported composite z-score, which band applies to C=C(C(=O)CC[C@@H](OC(C)=O)c1ccccc1OCCO)C(C)C ?
bin 2

Using the reported composite z-score, which band applies to CC(C)[Si](C#C[Si](C(C)C)(C(C)C)C(C)C)(O[C@H](C)c1cn([C@H](C)c2ccccc2)nn1)C(C)C ?
bin 0

Using the reported composite z-score, which band applies to CO[C@H]1O[C@H](CO)[C@@H](OC(=O)Nc2ccccc2)[C@H](OC(=O)Nc2ccccc2-c2ccccc2)[C@@H]1OC(=O)Nc1ccccc1-c1ccccc1 ?
bin 1

Using the reported composite z-score, which band applies to CC(C)C[C@@H]1NC(=O)[C@@]23C(=O)N[C@@H](Cc4ccccc4)C2[C@H](C)[C@@]2(C)O[C@H]2C3/C=C/C/C=C\CNC(=O)[C@H](Cc2ccccc2)NC1=O (stereo not given in full) ?
bin 2

Using the reported composite z-score, which band applies to COC(=O)[C@@]1(CCC(=O)OC(C)(C)C)COC(c2ccc(OCCCO)cc2)=N1 ?
bin 0
